Where do the numbers come from? From patent US6476047B2.

# TARGET: N-type calcium channel in HEK-293-N26 cells (Homo sapiens, UniProt Q00975)
# Sequence (Q00975 whole entry): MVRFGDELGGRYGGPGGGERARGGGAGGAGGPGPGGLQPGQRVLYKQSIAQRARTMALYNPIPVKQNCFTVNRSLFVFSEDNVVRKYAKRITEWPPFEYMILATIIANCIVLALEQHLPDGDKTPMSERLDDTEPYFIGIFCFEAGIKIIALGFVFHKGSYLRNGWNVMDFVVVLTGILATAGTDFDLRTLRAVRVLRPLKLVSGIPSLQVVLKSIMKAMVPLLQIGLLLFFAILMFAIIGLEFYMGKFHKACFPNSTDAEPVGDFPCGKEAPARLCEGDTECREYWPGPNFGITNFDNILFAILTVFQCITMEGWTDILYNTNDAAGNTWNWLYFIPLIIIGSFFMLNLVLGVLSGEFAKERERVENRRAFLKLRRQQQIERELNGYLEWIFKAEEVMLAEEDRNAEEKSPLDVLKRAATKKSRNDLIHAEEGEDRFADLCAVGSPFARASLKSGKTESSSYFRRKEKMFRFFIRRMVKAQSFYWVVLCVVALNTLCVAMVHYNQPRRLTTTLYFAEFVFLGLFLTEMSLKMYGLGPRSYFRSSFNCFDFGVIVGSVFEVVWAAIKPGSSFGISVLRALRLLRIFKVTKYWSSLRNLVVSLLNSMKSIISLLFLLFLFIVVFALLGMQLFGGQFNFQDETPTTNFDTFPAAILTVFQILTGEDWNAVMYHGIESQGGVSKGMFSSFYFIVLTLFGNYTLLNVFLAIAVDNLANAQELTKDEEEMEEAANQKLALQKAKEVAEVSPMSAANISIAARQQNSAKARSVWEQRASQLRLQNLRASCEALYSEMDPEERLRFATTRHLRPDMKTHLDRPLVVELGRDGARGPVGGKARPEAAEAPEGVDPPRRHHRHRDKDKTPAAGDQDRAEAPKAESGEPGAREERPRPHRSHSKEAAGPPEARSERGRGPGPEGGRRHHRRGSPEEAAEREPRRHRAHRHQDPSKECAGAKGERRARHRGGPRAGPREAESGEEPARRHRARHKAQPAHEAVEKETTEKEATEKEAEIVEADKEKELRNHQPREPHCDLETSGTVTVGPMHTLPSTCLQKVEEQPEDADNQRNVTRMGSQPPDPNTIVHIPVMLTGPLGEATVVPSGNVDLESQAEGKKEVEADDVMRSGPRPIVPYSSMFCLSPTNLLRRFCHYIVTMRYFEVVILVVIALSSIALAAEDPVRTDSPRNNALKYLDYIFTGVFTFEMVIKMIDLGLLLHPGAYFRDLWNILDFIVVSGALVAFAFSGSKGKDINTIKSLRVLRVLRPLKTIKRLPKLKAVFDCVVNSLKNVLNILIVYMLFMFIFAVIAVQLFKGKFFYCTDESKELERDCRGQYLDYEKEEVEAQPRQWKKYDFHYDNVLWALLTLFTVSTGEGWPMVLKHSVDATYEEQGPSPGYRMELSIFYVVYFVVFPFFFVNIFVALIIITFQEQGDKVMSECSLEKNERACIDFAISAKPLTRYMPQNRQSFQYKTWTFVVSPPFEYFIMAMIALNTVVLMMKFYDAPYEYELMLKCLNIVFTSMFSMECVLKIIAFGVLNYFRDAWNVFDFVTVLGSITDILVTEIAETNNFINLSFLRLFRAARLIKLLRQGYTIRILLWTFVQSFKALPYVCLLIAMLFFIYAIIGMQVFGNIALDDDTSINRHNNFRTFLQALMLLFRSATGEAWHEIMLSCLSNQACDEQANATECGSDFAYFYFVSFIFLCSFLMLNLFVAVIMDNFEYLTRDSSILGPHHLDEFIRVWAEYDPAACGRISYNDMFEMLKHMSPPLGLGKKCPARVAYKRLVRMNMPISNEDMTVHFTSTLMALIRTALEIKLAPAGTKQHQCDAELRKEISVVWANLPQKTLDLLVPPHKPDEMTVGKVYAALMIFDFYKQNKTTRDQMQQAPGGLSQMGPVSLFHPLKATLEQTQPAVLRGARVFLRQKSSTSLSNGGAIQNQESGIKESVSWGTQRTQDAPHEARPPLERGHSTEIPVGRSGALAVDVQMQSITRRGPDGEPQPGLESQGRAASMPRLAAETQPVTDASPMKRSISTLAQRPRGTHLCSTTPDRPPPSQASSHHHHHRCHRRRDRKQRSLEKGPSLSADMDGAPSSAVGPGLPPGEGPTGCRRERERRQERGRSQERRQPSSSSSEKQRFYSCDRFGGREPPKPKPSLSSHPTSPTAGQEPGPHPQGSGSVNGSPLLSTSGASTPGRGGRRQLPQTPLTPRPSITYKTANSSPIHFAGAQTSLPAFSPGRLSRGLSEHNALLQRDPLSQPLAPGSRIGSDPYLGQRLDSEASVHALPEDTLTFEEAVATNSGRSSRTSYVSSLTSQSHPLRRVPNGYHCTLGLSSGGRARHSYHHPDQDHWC
# Sequence (P54289 25-956 partner limits assumed): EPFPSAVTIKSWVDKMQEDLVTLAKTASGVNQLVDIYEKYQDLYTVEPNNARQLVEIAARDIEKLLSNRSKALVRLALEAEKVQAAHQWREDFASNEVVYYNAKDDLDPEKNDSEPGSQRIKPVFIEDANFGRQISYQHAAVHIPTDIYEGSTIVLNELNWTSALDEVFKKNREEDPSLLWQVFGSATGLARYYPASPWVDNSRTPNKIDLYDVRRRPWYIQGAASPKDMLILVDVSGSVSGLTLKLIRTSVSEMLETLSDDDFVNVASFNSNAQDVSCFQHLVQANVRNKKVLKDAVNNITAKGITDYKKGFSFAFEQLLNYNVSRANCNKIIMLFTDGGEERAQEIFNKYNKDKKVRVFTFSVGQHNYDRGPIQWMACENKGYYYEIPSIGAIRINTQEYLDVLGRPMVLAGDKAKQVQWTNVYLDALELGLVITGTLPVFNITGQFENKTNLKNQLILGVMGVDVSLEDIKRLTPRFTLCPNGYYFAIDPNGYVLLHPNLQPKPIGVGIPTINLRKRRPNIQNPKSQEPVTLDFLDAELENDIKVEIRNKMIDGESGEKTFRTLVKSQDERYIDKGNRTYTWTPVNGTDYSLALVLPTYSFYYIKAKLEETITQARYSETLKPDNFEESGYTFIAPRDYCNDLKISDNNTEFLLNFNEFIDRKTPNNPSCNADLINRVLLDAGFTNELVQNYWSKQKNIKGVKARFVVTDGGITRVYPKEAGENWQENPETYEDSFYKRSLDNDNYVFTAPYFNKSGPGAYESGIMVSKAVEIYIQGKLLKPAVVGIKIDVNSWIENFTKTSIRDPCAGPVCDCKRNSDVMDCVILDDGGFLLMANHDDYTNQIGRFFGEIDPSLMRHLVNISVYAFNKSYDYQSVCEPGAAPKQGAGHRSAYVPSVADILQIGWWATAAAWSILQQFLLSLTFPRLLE
# Sequence (P54289 957-1103 partner limits assumed): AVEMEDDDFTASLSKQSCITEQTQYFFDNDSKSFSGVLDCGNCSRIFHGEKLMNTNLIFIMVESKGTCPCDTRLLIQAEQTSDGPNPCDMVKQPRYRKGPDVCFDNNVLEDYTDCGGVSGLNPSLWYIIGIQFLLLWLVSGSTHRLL
# Sequence (P54284 whole entry partner): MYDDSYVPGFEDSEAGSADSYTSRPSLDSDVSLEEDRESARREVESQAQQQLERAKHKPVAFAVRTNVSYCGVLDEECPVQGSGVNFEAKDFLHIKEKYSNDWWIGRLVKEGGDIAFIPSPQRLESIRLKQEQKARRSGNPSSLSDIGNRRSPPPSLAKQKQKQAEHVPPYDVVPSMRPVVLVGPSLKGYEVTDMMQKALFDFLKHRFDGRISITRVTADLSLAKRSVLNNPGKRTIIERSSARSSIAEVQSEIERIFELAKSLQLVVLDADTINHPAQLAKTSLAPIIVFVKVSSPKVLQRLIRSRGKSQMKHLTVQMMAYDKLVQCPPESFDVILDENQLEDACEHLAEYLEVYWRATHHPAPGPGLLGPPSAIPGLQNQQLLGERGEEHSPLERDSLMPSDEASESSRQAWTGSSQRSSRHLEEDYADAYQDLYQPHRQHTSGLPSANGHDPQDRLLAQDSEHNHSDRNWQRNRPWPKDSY
# ASSAY_SUMMARY: Test B: Patch-clamp tests, N-type calcium channel blockade
pIC50: −log10 of the molar value.
METRIC_NAME: pIC50

COc1cc2c(cc1OC)C(C)(C)CN=C2c1ccc(Oc2ccc(C(F)(F)F)cc2)cc1 ... 5.88
COc1cc2c(cc1OC)C(c1ccc(Oc3ccc(C(F)(F)F)cc3)cc1)=NCC2 ... 5.95
CCCCCCOc1ccc(C2=NCCc3cc(OC)c(OC)cc32)cc1 ... 5.96
COc1cc2c(cc1OC)C(c1ccc(Oc3ccccc3)cc1)=NCC2 ... 5.74
COc1cc2c(cc1OC)C(C)(C)CN=C2c1ccccc1Oc1cc(C(F)(F)F)cc(C(F)(F)F)c1 ... 5.77

====

# TARGET: N-type calcium channel in HEK-293-N26 cells (Homo sapiens, UniProt Q00975)
# ASSAY_SUMMARY: Test B: Patch-clamp tests, N-type calcium channel blockade
pIC50: −log10 of the molar value. Where a name gives a salt, the structure may show the parent alone.
METRIC_NAME: pIC50

CC1(C)CN=C(c2ccc(Oc3cc(C(F)(F)F)cc(C(F)(F)F)c3)cc2)c2ccccc21 ... 5.91

1. FC(F)(F)c1ccc(Oc2ccc(C3=NCCc4ccccc43)cc2)cc1
2. COc1ccc2c(c1)C(C)(C)CN=C2c1ccccc1Oc1cc(C(F)(F)F)cc(C(F)(F)F)c1
3. CC1(C)CN=C(c2ccccc2Oc2cc(C(F)(F)F)cc(C(F)(F)F)c2)c2ccccc21 [Example 9, hydrochloride]
4. COc1cc2c(cc1OC)C(C)(C)CN=C2c1ccc(Oc2cc(C(F)(F)F)cc(C(F)(F)F)c2)cc1
Put the entries in order of pIC50, starting with the largest number. Give the labels in the order specified.
3, 4, 2, 1
(3: 6.59, 4: 6.00, 2: 5.80, 1: 5.09)

====

Listed next: entries and their corresponding melting point.
Structures can show the parent of a compound that is named as a salt.

COc1ccc2c(c1)C(C)(C)CN=C2c1ccccc1Oc1cc(C(F)(F)F)cc(C(F)(F)F)c1 (as salt: salt) ... 122 to 123 °C
COc1cc2c(cc1OC)C(C)(C)CN=C2c1ccc(Oc2ccccc2)cc1 ... 141 to 142 °C
COc1cc2c(cc1OC)C(C)(C)CN=C2c1cccc(Oc2ccccc2)c1 (as salt: salt) ... 181 °C
CCCCCCOc1ccc(C2=NCC(C)(C)c3ccccc32)cc1 (as salt: salt) ... 186 to 187 °C
FC(F)(F)c1ccc(Oc2ccc(C3=NCCc4ccccc43)cc2)cc1 (as salt: salt) ... 234 to 235 °C

// COc1cc2c(cc1OC)C(C)(C)CN=C2c1ccccc1Oc1cc(C(F)(F)F)cc(C(F)(F)F)c1 (as salt: salt) : melting point value = 172 to 173 °C

Value of measured melting point for the entry COc1cc2c(cc1OC)C(C)(C)CN=C2c1ccc(Oc2ccc(C(F)(F)F)cc2)cc1 (as salt: salt) : 195 to 198 °C

melting point measured on COc1cc2c(c(OC)c1OC)CCN=C2c1ccc(Oc2ccccc2)cc1 (as salt: salt) = 173 to 175 °C

The compound identified as COc1cc2c(cc1OC)C(C)(C)CN=C2c1ccc(Oc2cc(C(F)(F)F)cc(C(F)(F)F)c2)cc1 (as salt: salt) registered its melting point at 197 °C

Lab note: measured melting point of COc1cc2c(cc1OC)C(c1ccc(Oc3ccc(C(F)(F)F)cc3)cc1)=NCC2 (as salt: salt) was 218 °C

====

Structures can show the parent of a compound that is named as a salt.
Quick list: melting point per entry.

Example cases with answers are listed next.
COc1cc2c(cc1OC)C(c1ccc(Oc3ccccc3)cc1)=NCC2 (as salt: salt) ... 209 to 210 °C
CC1(C)CN=C(c2ccc(Oc3cc(C(F)(F)F)cc(C(F)(F)F)c3)cc2)c2ccccc21 (as salt: salt) ... 217 to 218 °C
CC1(C)CN=C(c2ccccc2Oc2cc(C(F)(F)F)cc(C(F)(F)F)c2)c2ccccc21 (as salt: hydrochloride) ... 211 to 212 °C
COc1cc2c(cc1OC)C(c1ccc(Oc3cc(C(F)(F)F)cc(C(F)(F)F)c3)cc1)=NCC2 (as salt: salt) ... 215 °C
COc1cc2c(cc1OC)C(C)(C)CN=C2c1cccc(Oc2cc(C(F)(F)F)cc(C(F)(F)F)c2)c1 (as salt: salt) ... 210 to 211 °C

Here is another molecule to look at.
// sample CCCCCCOc1ccc(C2=NCCc3cc(OC)c(OC)cc32)cc1 (as salt: salt) , its melting point was 172 °C
